Where these numbers come from: BindingDB's records for doi:10.1016/j.bmcl.2016.10.061

- study_system: Proto-oncogene tyrosine-protein kinase receptor Ret (Homo sapiens) (UniProt P07949)
- Sequence (P07949 whole entry, looked up): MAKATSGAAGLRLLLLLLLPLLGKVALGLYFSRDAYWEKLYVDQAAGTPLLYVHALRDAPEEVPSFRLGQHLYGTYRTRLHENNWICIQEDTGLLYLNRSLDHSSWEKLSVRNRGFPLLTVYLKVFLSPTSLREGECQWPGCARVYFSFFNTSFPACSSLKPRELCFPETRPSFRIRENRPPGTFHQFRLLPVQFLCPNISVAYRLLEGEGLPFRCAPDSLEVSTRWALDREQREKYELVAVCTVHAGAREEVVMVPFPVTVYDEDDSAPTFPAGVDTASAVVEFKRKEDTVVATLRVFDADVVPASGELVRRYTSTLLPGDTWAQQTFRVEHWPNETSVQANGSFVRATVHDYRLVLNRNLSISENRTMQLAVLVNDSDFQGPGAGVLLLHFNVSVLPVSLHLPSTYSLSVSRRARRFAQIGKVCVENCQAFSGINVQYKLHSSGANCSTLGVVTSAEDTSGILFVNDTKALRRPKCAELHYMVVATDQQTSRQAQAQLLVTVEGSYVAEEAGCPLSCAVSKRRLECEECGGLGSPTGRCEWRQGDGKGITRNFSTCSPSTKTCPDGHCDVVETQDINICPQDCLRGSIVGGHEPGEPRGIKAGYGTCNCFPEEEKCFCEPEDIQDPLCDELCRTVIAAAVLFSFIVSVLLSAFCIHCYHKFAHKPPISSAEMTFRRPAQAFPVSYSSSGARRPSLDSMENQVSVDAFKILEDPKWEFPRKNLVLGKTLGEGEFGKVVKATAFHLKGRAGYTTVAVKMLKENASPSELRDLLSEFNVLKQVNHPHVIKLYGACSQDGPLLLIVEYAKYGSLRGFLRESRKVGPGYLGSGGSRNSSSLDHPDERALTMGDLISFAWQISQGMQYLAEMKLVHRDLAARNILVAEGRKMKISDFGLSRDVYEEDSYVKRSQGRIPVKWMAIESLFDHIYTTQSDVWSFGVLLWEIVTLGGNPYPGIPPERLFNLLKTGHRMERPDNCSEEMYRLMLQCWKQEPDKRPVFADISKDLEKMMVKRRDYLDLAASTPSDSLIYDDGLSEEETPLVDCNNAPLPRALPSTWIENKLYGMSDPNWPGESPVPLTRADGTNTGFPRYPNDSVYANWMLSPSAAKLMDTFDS
- protocol_text: Inhibition of CCDC6/RET (unknown origin) expressed in mouse BaF3 cells assessed as reduction in cell proliferation after 72 hrs by MTT assay
reported_endpoint: IC50 (µM)
Your answer should be a plain number; it is taken to be in µM.

Query (compound): CN1CCN(Cc2ccc(NC(=O)c3ccc(Cl)c(-c4noc(-c5cncc(-c6cnn(C)c6)c5)n4)c3)cc2C(F)(F)F)CC1 ; field requested: IC50
0.407
